Recorded values, source patent US20240391926A1.

As shown below, each of these molecules has a reported pIC50 value.
# TESTED_TARGET: hERG channel (Homo sapiens, UniProt Q12809)
# Sequence (Q12809 whole entry): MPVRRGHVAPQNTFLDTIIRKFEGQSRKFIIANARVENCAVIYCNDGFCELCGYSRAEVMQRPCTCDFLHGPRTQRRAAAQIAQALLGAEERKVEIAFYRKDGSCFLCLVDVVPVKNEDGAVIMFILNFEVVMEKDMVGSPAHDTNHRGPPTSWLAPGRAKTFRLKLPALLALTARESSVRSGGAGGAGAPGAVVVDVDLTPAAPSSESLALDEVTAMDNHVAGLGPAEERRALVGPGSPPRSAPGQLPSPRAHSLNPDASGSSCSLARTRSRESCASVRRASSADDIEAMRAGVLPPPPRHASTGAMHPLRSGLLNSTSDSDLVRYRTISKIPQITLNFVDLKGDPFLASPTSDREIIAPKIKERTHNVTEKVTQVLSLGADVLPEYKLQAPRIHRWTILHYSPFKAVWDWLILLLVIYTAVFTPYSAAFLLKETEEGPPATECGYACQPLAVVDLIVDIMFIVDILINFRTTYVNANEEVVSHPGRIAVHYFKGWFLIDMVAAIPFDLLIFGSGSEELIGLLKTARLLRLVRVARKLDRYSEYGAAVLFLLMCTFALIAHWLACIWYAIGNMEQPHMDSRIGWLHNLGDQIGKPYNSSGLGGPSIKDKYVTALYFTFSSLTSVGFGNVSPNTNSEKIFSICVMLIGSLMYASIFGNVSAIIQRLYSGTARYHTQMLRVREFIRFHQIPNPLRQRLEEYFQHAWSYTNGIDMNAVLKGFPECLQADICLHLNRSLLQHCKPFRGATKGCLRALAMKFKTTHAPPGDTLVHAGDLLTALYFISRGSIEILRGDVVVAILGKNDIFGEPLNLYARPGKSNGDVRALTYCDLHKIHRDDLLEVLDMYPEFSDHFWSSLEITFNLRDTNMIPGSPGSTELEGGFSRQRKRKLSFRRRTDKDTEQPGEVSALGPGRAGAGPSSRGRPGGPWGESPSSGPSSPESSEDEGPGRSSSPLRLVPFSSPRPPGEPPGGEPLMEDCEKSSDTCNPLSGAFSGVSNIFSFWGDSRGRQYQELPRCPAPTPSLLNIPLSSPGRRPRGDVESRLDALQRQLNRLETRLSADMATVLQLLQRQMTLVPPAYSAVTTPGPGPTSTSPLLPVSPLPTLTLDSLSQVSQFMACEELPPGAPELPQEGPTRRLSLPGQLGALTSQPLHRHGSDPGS
# PROCEDURE_DETAILS: hERG electrophysiology, automated whole-cell patch clamp (Patchliner) in CHO-K1 cells stably expressing hERG
# MEASUREMENT_PARAMETERS: 30 nM-100 μM
pIC50: −log10 of the molar value.

# example entries with known answers
molecule="C[C@H]1NCC[C@@H]1C(=O)N1CC[C@]2(C1)C(=O)Nc1cc(Cl)c(Cl)cc12 (relative stereo)" endpoint_name=pIC50 test_value="< 4.00"
molecule=O=C([C@H]1C[C@@H](O)[C@@H](O)C1)N1CC[C@]2(C1)C(=O)Nc1cc(Cl)c(Cl)cc12 endpoint_name=pIC50 test_value="< 4.00"
molecule=O=C(CO)N1CC[C@]2(C1)C(=O)Nc1c2cc(Cl)c(Cl)c1Cl endpoint_name=pIC50 test_value="< 5.00"
molecule=Cc1c(Cl)c(Cl)cc2c1NC(=O)[C@@]21CCN(C(=O)CO)C1 endpoint_name=pIC50 test_value="< 4.00"
molecule=O=C(c1cc[nH]n1)N1CC[C@]2(C1)C(=O)Nc1cc(Cl)c(Cl)cc12 endpoint_name=pIC50 test_value="< 5.00"

Query: Item: O=C(C[C@H]1CCNC1)N1CC[C@]2(C1)C(=O)Nc1cc(Cl)c(Cl)cc12 Test system: hERG channel (Homo sapiens, UniProt Q12809) Read-out: pIC50 Value: ?
Reply: < 4.00

Query: Input O=C([C@H]1CC[C@H](O)C1)N1CC[C@]2(C1)C(=O)Nc1cc(Cl)c(Cl)cc12 (single isomer, unassigned; isomer 1)
Reply: < 4.52

* * *

# TESTED_TARGET: Kv1.3 potassium channel (Homo sapiens)
# PROCEDURE_DETAILS: Kv1.3 potassium channel blocker activity, automated whole-cell patch clamp (Patchliner) in CHO-K1 cells stably expressing Kv1.3
# MEASUREMENT_PARAMETERS: 30 nM-100 μM
ENDPOINT_NAME: IC50

Some solved cases for reference:
compound=O=C1Nc2cc(Cl)c(Cl)cc2[C@]12CCN(C(=O)[C@H]1C[C@@](O)(CO)C1)C2 test_value="< 1 µM"
compound=O=C(c1nnc[nH]1)N1CC[C@]2(C1)C(=O)Nc1cc(Cl)c(Cl)cc12 test_value="< 1 µM"
compound=Cn1nc(C(=O)N2CC[C@]3(C2)C(=O)Nc2cc(Cl)c(Cl)cc23)cc1N test_value="< 10 µM"

Query: What does the data say about its IC50? Entry: C[C@@H]1NCC[C@H]1C(=O)N1CC[C@]2(C1)C(=O)Nc1cc(Cl)c(Cl)cc12 (single isomer, unassigned; isomer 1)
Reply: < 0.3 µM

Query: Now the same for O=C([C@H]1CNC[C@@H]1O)N1CC[C@]2(C1)C(=O)Nc1cc(Cl)c(Cl)cc12 (single isomer, unassigned)
Reply: < 1 µM

Query: // next record O=C([C@H]1CC[C@](O)(CO)C1)N1CC[C@]2(C1)C(=O)Nc1cc(Cl)c(Cl)cc12 (relative stereo)
Reply: < 1 µM

Query: Repeat with CNCC(=O)N1CC[C@]2(C1)C(=O)Nc1cc(Cl)c(Cl)cc12
Reply: < 3 µM

* * *

# TESTED_TARGET: Kv1.3 potassium channel (Homo sapiens)
# PROCEDURE_DETAILS: Kv1.3 potassium channel blocker activity, automated whole-cell patch clamp (Patchliner) in CHO-K1 cells stably expressing Kv1.3
# MEASUREMENT_PARAMETERS: 30 nM-100 μM
Listed compounds paired with reported IC50

Consider the reported IC50 for these compounds:
compound=O=C([C@H]1CCCN1)N1CC[C@]2(C1)C(=O)Nc1cc(Cl)c(Cl)cc12 test_value="< 3 µM"
compound=Cc1c(Cl)cc2c(c1F)NC(=O)[C@@]21CCN(C(=O)CO)C1 test_value="< 1 µM"
compound=Nc1nnc(N2CC[C@]3(C2)C(=O)Nc2cc(Cl)c(Cl)cc23)o1 test_value="< 3 µM"
compound=O=C([C@@H]1CN[C@H](CO)C1)N1CC[C@]2(C1)C(=O)Nc1cc(Cl)c(Cl)cc12 test_value="< 0.1 µM"
compound="O=C([C@@H]1CC[C@@H](O)C1)N1CC[C@]2(C1)C(=O)Nc1cc(Cl)c(Cl)cc12 (single isomer, unassigned; isomer 2)" test_value="< 3 µM"
compound="O=C(C1C[C@H](O)[C@@H](O)C1)N1CC[C@]2(C1)C(=O)Nc1cc(Cl)c(Cl)cc12 (relative stereo)" test_value="< 1 µM"
compound="O=C([C@@H]1[C@@H]2CN[C@H]1C2)N1CC[C@]2(C1)C(=O)Nc1cc(Cl)c(Cl)cc12 (single isomer, unassigned; isomer 2)" test_value="< 1 µM"
compound=O=C([C@H]1C[C@@H](O)[C@@H](O)C1)N1CC[C@]2(C1)C(=O)Nc1cc(Cl)c(Cl)cc12 test_value="< 1 µM"
compound=C[C@H](O)C(=O)N1CC[C@]2(C1)C(=O)Nc1cc(Cl)c(Cl)cc12 test_value="< 3 µM"
compound=NCCC(=O)N1CC[C@]2(C1)C(=O)Nc1cc(Cl)c(Cl)cc12 test_value="< 1 µM"

Query: For O=C(c1ccnc(CO)c1)N1CC[C@]2(C1)C(=O)Nc1cc(Cl)c(Cl)cc12 , what is its reported IC50?
Reply: < 1 µM

Query: Consider next the compound C[C@@H]1N(C(=O)CO)CCC12C(=O)Nc1cc(Cl)c(Cl)cc12 (single isomer, unassigned; diastereoisomer 1) in the same way.
Reply: < 3 µM

Query: Can you check NC[C@H](O)C(=O)N1CC[C@]2(C1)C(=O)Nc1cc(Cl)c(Cl)cc12 next?
Reply: < 3 µM

Query: Please answer likewise for O=C(C[C@@H](O)CO)N1CC[C@]2(C1)C(=O)Nc1cc(Cl)c(Cl)cc12
Reply: < 10 µM

Query: Also O=C1C[C@H](C(=O)N2CC[C@]3(C2)C(=O)Nc2cc(Cl)c(Cl)cc23)CN1 (single isomer, unassigned; isomer 1) ?
Reply: < 1 µM

* * *

# TESTED_TARGET: Kv1.3 potassium channel (Homo sapiens, UniProt P22001)
# Sequence (P22001 whole entry): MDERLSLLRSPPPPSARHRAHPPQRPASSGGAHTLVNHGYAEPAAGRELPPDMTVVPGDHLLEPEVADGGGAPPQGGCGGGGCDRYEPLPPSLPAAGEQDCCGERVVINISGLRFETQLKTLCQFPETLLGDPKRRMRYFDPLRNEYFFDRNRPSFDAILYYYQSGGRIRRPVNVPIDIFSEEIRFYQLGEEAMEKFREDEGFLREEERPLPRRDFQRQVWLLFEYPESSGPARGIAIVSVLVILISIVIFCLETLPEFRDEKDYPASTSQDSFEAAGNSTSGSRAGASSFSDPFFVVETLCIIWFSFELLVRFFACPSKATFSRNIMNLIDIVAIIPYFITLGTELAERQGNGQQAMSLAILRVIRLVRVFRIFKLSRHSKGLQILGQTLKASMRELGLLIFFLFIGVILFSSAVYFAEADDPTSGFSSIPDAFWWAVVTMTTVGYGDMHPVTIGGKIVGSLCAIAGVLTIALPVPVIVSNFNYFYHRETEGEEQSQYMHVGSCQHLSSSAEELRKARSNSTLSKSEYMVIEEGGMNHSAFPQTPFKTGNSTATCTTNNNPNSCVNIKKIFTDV
# PROCEDURE_DETAILS: Kv1.3 potassium channel blocker activity, automated whole-cell patch clamp (Patchliner) in CHO-K1 cells stably expressing Kv1.3
# MEASUREMENT_PARAMETERS: 30 nM-100 μM
ENDPOINT_NAME: IC50

Here's what some known entries look like.
compound=Cc1cc(Cl)cc2c1NC(=O)[C@@]21CCN(C(=O)CO)C1 tested_target="Kv1.3 potassium channel (Homo sapiens, UniProt P22001)" test_value="< 1000 nM"
compound="O=C(N1CC[C@]2(C1)C(=O)Nc1cc(Cl)c(Cl)cc12)C12CNCC1C2 (single isomer, unassigned; isomer 2)" tested_target="Kv1.3 potassium channel (Homo sapiens, UniProt P22001)" test_value="< 1000 nM"
compound=C[C@H](O)CC(=O)N1CC[C@]2(C1)C(=O)Nc1cc(Cl)c(Cl)cc12 tested_target="Kv1.3 potassium channel (Homo sapiens, UniProt P22001)" test_value="< 3000 nM"
compound=O=C([C@@H]1CCCNC1)N1CC[C@]2(C1)C(=O)Nc1cc(Cl)c(Cl)cc12 tested_target="Kv1.3 potassium channel (Homo sapiens, UniProt P22001)" test_value="< 300 nM"
compound=O=C([C@@H]1C[C@@H](O)[C@@H](O)C1)N1CC[C@]2(C1)C(=O)Nc1cc(Cl)c(Cl)cc12 tested_target="Kv1.3 potassium channel (Homo sapiens, UniProt P22001)" test_value="< 300 nM"

Shift focus to the following entry.
Query: State the recorded IC50 for this entry: O=C(N1CC[C@]2(C1)C(=O)Nc1cc(Cl)c(Cl)cc12)[C@@]1(F)CCCNC1
Reply: < 1000 nM

* * *

# TESTED_TARGET: UniProtKB P22001
# PROCEDURE_DETAILS: Kv1.3 potassium channel blocker activity, automated whole-cell patch clamp (Patchliner) in CHO-K1 cells stably expressing Kv1.3
# MEASUREMENT_PARAMETERS: 30 nM-100 μM
ENDPOINT_NAME: IC50

compound="O=C(C1CCN(CCO)C1)N1CC[C@]2(C1)C(=O)Nc1cc(Cl)c(Cl)cc12 (single isomer, unassigned; isomer 1)" endpoint_name=IC50 test_value="< 0.3 µM"

Query: Requested read-out: IC50. Entry: NS(=O)(=O)N1CC[C@]2(C1)C(=O)Nc1cc(Cl)c(Cl)cc12
Reply: < 3 µM

Query: Then O=C(Cc1cc[nH]n1)N1CC[C@]2(C1)C(=O)Nc1cc(Cl)c(Cl)cc12 ?
Reply: < 3 µM

Query: Next: O=C(N1CC[C@]2(C1)C(=O)Nc1cc(Cl)c(Cl)cc12)[C@]1(F)CCCNC1
Reply: < 0.3 µM

Query: Entry O=C(C1CNC1)N1CC[C@]2(C1)C(=O)Nc1cc(Cl)c(Cl)cc12 please
Reply: < 1 µM

Query: Thanks! And Cn1cc(C(=O)N2CC[C@]3(C2)C(=O)Nc2cc(Cl)c(Cl)cc23)cn1 ?
Reply: < 10 µM

Query: Let us now turn to O=C(C1CC1O)N1CC[C@]2(C1)C(=O)Nc1cc(Cl)c(Cl)cc12 (stereo partly drawn)
Reply: < 3 µM

Query: Now consider O=C(N1CC[C@]2(C1)C(=O)Nc1cc(Cl)c(Cl)cc12)[C@@]1(O)CCNC1 (single isomer, unassigned; isomer 2) .
Reply: < 3 µM

Query: And the next one, CN1CC(C(=O)N2CC[C@]3(C2)C(=O)Nc2cc(Cl)c(Cl)cc23)CC1=O (stereo partly drawn) ?
Reply: < 3 µM
